Hey, just so you know, these numbers are from ChEMBL document CHEMBL3785040.

# reported MIC; entries follow
tested on: Mycobacterium tuberculosis; assay: Antituberculosis activity against Mycobacterium tuberculosis H37Rv in glycerol-alanine salts medium incubated for 4 days by Microplate Alamar Blue assay; assay type: functional; details: 96 h
Respond with the bare value in µM.

Some solved entries appear below for comparison.
[[record]]
molecule = "CSN1C(=O)CC1N(OCc1ccccc1)C(=O)c1cc([N+](=O)[O-])cc(C(F)(F)F)c1 (racemic)"
measurement_target = "Mycobacterium tuberculosis"
observed = 5.92

[[record]]
molecule = "CC(C)(C)[Si](C)(C)N1C(=O)CC1N(OCc1ccccc1)C(=O)c1ccccc1 (racemic)"
measurement_target = "Mycobacterium tuberculosis"
observed = 0.28

[[record]]
molecule = "CSN1C(=O)[C@@H](NC(=O)Cc2ccccc2)[C@@H]1N(OCc1ccccc1)C(=O)c1ccccc1 (racemic)"
measurement_target = "Mycobacterium tuberculosis"
observed = 11.6


## Input For the molecule shown here, CO[C@H]1/C=C/O[C@@]2(C)Oc3c(C)c(O)c4c(O)c(c(/C=N/N5CCN(C)CC5)c(O)c4c3C2=O)NC(=O)/C(C)=C\C=C\[C@H](C)[C@H](O)[C@@H](C)[C@@H](O)[C@@H](C)[C@H](OC(C)=O)[C@@H]1C , give the reported MIC.
## Output 0.04

## Input Moving on to the next molecule: CSN1C(=O)[C@H]([C@@H](C)O[Si](C)(C)C(C)(C)C)[C@H]1N(OCc1ccccc1)C(=O)c1ccccc1
## Output 0.753

## Input Also, O=C(Cc1ccccc1)N[C@@H]1C(=O)N[C@H]1N(OCc1ccccc1)C(=O)c1ccccc1 please.
## Output 6.05

## Input What do you get for CCOc1ccc(C(=O)N(OCc2ccccc2)C2CC(=O)N2)cc1 (racemic) ?
## Output 49.3

## Input // repeat for CSN1C(=O)CC1N(OCc1ccccc1)C(=O)c1ccc([N+](=O)[O-])cc1 (racemic) and report
## Output 24.2

## Input // next record CSN1C(=O)[C@@H](NC(=O)Cc2ccccc2)[C@@H]1OC(C)=O
## Output 10.7

## Input Also CSN1C(=O)CC1N(OCc1ccccc1)C(=O)c1ccccc1 (racemic) ?
## Output 17.9

###

assay: Inhibition of purified beta-lactamase Oxa-48 (unknown origin) using nitrocefin as substrate preincubated for 10 mins followed by substrate addition
# Ki per record follows

[[record]]
molecule = "CSN1C(=O)CC1N(OCc1ccccc1)C(=O)c1ccc([N+](=O)[O-])cc1 (racemic)"
observed = "> 160 µM"

[[record]]
molecule = "CC(C)(C)[Si](C)(C)ON(C(=O)c1ccccc1)[C@@H]1NC(=O)[C@H]1NC(=O)COc1ccccc1 (racemic)"
observed = "> 160 µM"

[[record]]
molecule = "C=CCON(C(=O)c1cc([N+](=O)[O-])cc(C(F)(F)F)c1)C1CC(=O)N1SC (racemic)"
observed = "> 160 µM"

[[record]]
molecule = "C=CCON(C(=O)c1ccc([N+](=O)[O-])cc1)C1CC(=O)N1 (racemic)"
observed = "> 160 µM"

[[record]]
molecule = "CSN1C(=O)[C@@H](NC(=O)COc2ccccc2)[C@@H]1N(OCc1ccccc1)C(=O)c1cc([N+](=O)[O-])cc(C(F)(F)F)c1 (racemic)"
observed = "> 160 µM"

[[record]]
molecule = "O=C(COc1ccccc1)N[C@@H]1C(=O)N[C@H]1N(OCc1ccccc1)C(=O)c1ccccc1"
observed = "> 160 µM"

[[record]]
molecule = "C=CCON(C(=O)c1ccc([N+](=O)[O-])cc1)C1CC(=O)N1SC (racemic)"
observed = "> 160 µM"

[[record]]
molecule = "CC(C)(C)[Si](C)(C)N1C(=O)CC1N(OCc1ccccc1)C(=O)c1ccccc1 (racemic)"
observed = "1.72 µM"

[[record]]
molecule = "C=CCON(C(=O)c1cc([N+](=O)[O-])cc(C(F)(F)F)c1)C1CC(=O)N1 (racemic)"
observed = "1.93 µM"

[[record]]
molecule = "CSN1C(=O)[C@@H](NC(=O)COc2ccccc2)[C@@H]1N(OCc1ccccc1)C(=O)c1ccccc1 (racemic)"
observed = "> 160 µM"


## Input Name the recorded Ki for O=C(Cc1ccccc1)N[C@@H]1C(=O)N[C@H]1N(OCc1ccccc1)C(=O)c1ccccc1 .
## Output > 160 µM

## Input For CCOc1ccc(C(=O)N(OCc2ccccc2)C2CC(=O)N2)cc1 (racemic) then?
## Output > 160 µM

## Input Next molecule: C[C@@H](O[Si](C)(C)C(C)(C)C)[C@H]1C(=O)N[C@@H]1N(O)C(=O)c1ccccc1
## Output > 160 µM

## Input Also CSN1C(=O)[C@H]([C@@H](C)O[Si](C)(C)C(C)(C)C)[C@H]1N(OCc1ccccc1)C(=O)c1ccccc1 , if possible.
## Output > 160 µM

## Input Okay, and CC(=O)O[C@@H]1NC(=O)[C@H]1NC(=O)COc1ccccc1 ?
## Output > 160 µM

## Input Try this molecule next: C[C@@H](O[Si](C)(C)C(C)(C)C)[C@H]1C(=O)N[C@@H]1N(OCc1ccccc1)C(=O)c1ccccc1
## Output > 160 µM

## Input Request: C[C@@H](O)[C@H]1C(=O)N[C@@H]1N(OCc1ccccc1)C(=O)c1ccccc1
## Output > 160 µM

## Input Another molecule to check: CCOc1ccc(C(=O)N(OCc2ccccc2)C2CC(=O)N2SC)cc1 (racemic)
## Output > 160 µM

## Input Also CSN1C(=O)[C@@H](NC(=O)Cc2ccccc2)[C@@H]1N(OCc1ccccc1)C(=O)c1ccccc1 (racemic) ?
## Output 1.95 µM
